assay: Pharmacokinetic study, plasma levels by HPLC; assay type: in vivo, CDF1 mice; conditions: female, CDF1, mouse, in vivo, po, 120 mg/kg

| compound.smiles | Tmax (min) |
| --- | --- |
| CC(=O)O[C@@]1([C@@H]2/C(C)=C(/O)C(=O)C3=C(C)[C@@H](OC(=O)[C@H](O)[C@H](CC(C)C)NC(=O)OC(C)(C)C)C[C@@](O)([C@H]2OC(=O)c2ccccc2)C3(C)C)CO[C@@H]1CCO | 30 |

---

Test: Pharmacokinetic study, plasma levels by HPLC
Format: in vivo, CDF1 mice
Settings: female, CDF1, mouse, plasma, 120 mg kg^−1; in mice; read-out: T1/2
Protocol: In order to assess the bioavailability of IDN 5390, a pharmaco-kinetic study was performed in female CDF1 mice (Charles River Italia, Calco, Italy). […] IDN 5390 levels were determined in plasma according to the high-performance liquid chromatography (HPLC) method of [Zaffaroni et al (2002)]. […] The lower limit of quantitation was of 50 ng ml^−1. Pharmacokinetic parameters were calculated by using a nonlinear fitting program ([Sacchi-Landriani et al, 1983]). […]

| compound.smiles | half-life |
| --- | --- |
| CC(=O)O[C@@]1([C@@H]2/C(C)=C(/O)C(=O)C3=C(C)[C@@H](OC(=O)[C@H](O)[C@H](CC(C)C)NC(=O)OC(C)(C)C)C[C@@](O)([C@H]2OC(=O)c2ccccc2)C3(C)C)CO[C@@H]1CCO | < 1 h |

---

experiment: Pharmacokinetic study, plasma levels by HPLC; assay type: in vivo, CDF1 mice; conditions: female, CDF1, mouse, in vivo, iv, 120 mg/kg

| compound.smiles | display.unit | Tmax |
| --- | --- | --- |
| CC(=O)O[C@@]1([C@@H]2/C(C)=C(/O)C(=O)C3=C(C)[C@@H](OC(=O)[C@H](O)[C@H](CC(C)C)NC(=O)OC(C)(C)C)C[C@@](O)([C@H]2OC(=O)c2ccccc2)C3(C)C)CO[C@@H]1CCO | min | 5 |

---

Test: Pharmacokinetic study, plasma levels by HPLC
Type: in vivo, CDF1 mice
Details: female, CDF1, mouse, in vivo, po, 120 mg/kg
Experimental: In order to assess the bioavailability of IDN 5390, a pharmaco-kinetic study was performed in female CDF1 mice (Charles River Italia, Calco, Italy). […] IDN 5390 levels were determined in plasma according to the high-performance liquid chromatography (HPLC) method of [Zaffaroni et al (2002)]. […] The lower limit of quantitation was of 50 ng ml^−1. Pharmacokinetic parameters were calculated by using a nonlinear fitting program ([Sacchi-Landriani et al, 1983]). […]

| compound | display.unit | AUC |
| --- | --- | --- |
| CC(=O)O[C@@]1([C@@H]2/C(C)=C(/O)C(=O)C3=C(C)[C@@H](OC(=O)[C@H](O)[C@H](CC(C)C)NC(=O)OC(C)(C)C)C[C@@](O)([C@H]2OC(=O)c2ccccc2)C3(C)C)CO[C@@H]1CCO [IDN 5390] | ng·h/mL | 34400 |

---

experiment: Pharmacokinetic study, plasma levels by HPLC; format: in vivo, CDF1 mice; settings: female, CDF1, mouse, in vivo, iv, 120 mg/kg
parameter: clearance (mL/min/kg)

| compound.smiles | quantitative.readout |
| --- | --- |
| CC(=O)O[C@@]1([C@@H]2/C(C)=C(/O)C(=O)C3=C(C)[C@@H](OC(=O)[C@H](O)[C@H](CC(C)C)NC(=O)OC(C)(C)C)C[C@@](O)([C@H]2OC(=O)c2ccccc2)C3(C)C)CO[C@@H]1CCO | 15.5 |
